System: HIV-1 Env pseudovirus MJ613.W0M.ENV.A2
Assay: Single-cycle assay, Paired Infant and Maternal Env clones
Conditions: subtype A; NIH # 11534-M (maternal); MJ613.W0M.ENV.A2
pIC50: −log10 of the molar value.

>  <compound>
Cc1nc([C@@H](CN)NC(=O)c2ccc(-c3ccc(F)c(F)c3)[nH]2)sc1CO (single isomer, unassigned) [NBD-14113, reference compound]

>  <pIC50>
5.31

$$$$

---

Experiment: Cytotoxicity
Type: cell-based, human
Conditions: human, MT-2 cells, MT-2 CC50, MT-2 cells, MTS; mean ± SD, n=3

>  <compound>
Cc1nc(C(NC(=O)c2ccc(-c3ccc4c(c3)OCO4)[nH]2)C(C)(C)N)sc1CO (stereo not shown)

>  <unit abbrev>
µM

>  <CC50 at 4 days>
98

$$$$
>  <compound>
CNCC(NC(=O)c1ccc(-c2ccc3c(c2)OCO3)[nH]1)c1ncc(CO)s1 (stereo not shown)

>  <unit abbrev>
µM

>  <CC50 at 4 days>
178

$$$$
>  <compound>
CC1(C)Oc2ccc(-c3ccc(C(=O)NC(CN)c4ncc(CO)s4)[nH]3)cc2O1 (stereo not shown)

>  <unit abbrev>
µM

>  <CC50 at 4 days>
96.5

$$$$
>  <compound>
CC(C)(N)C(NC(=O)c1ccc(-c2ccc3c(c2)OCO3)[nH]1)c1ncc(CO)s1 (stereo not shown)

>  <unit abbrev>
µM

>  <CC50 at 4 days>
123

$$$$

---

Tested on: HIV-1 Env pseudovirus CRF02_AG, clone 33
Test: Single-cycle assay TZM-bl, Env pseudovirus panel
Conditions: TZM-bl
pIC50: −log10 of the molar value.

>  <molecule>
CNCC(NC(=O)c1ccc(-c2ccc3c(c2)OCO3)[nH]1)c1nc(CO)cs1 (stereo not drawn) [NBD-14159]

>  <pIC50>
5.57

$$$$
>  <molecule>
NCC(NC(=O)c1ccc(-c2ccc3c(c2)OCO3)[nH]1)c1ncc(CO)s1 (stereo not drawn) [NBD-14123]

>  <pIC50>
5.46

$$$$
>  <molecule>
Cc1nc(C(CN)NC(=O)c2ccc(-c3ccc4c(c3)OCO4)[nH]2)sc1CO (stereo not drawn) [NBD-14110]

>  <pIC50>
5.30

$$$$

---

Measured pIC50 accompanies every entry in the list below.
System: HIV-1 Env pseudovirus QD435.100M.ENV.B5
Assay: Single-cycle assay TZM-bl, Env pseudovirus panel
Settings: TZM-bl
pIC50: −log10 of the molar value.

>  <compound>
NCC(NC(=O)c1ccc(-c2ccc3c(c2)OCO3)[nH]1)c1ncc(CO)s1 (stereo not drawn)

>  <pIC50>
5.46

$$$$
>  <compound>
CNCC(NC(=O)c1ccc(-c2ccc3c(c2)OCO3)[nH]1)c1nc(CO)cs1 (stereo not drawn)

>  <pIC50>
5.48

$$$$
>  <compound>
Cc1nc(C(CN)NC(=O)c2ccc(-c3ccc4c(c3)OCO4)[nH]2)sc1CO (stereo not drawn)

>  <pIC50>
5.62

$$$$

---

IC50: recorded values
System: HIV-1 Env pseudovirus WEAUd15.410.5017
Experiment: Single-cycle assay TZM-bl, Env pseudovirus panel
Conditions: TZM-bl

>  <compound>
NCC(NC(=O)c1ccc(-c2ccc3c(c2)OCO3)[nH]1)c1ncc(CO)s1 (stereo not drawn)

>  <experimental system>
HIV-1 Env pseudovirus WEAUd15.410.5017

>  <IC50>
3.4 µM

$$$$
>  <compound>
CNCC(NC(=O)c1ccc(-c2ccc3c(c2)OCO3)[nH]1)c1nc(CO)cs1 (stereo not drawn)

>  <experimental system>
HIV-1 Env pseudovirus WEAUd15.410.5017

>  <IC50>
3.3 µM

$$$$
>  <compound>
Cc1nc(C(CN)NC(=O)c2ccc(-c3ccc4c(c3)OCO4)[nH]2)sc1CO (stereo not drawn)

>  <experimental system>
HIV-1 Env pseudovirus WEAUd15.410.5017

>  <IC50>
1.6 µM

$$$$

Cited source for all entries: paper PMC6446940
